Listed here are molecules together with their documented TGI.
- System: HL-60(TB) leukemia
- Procedure text: NCI tumour cell line growth inhibition, 48 h

QUERY: Given the molecule "Cc1c2cnccc2c(C)c2c1c1cc(CO)ccc1n2C" , what is its reported TGI?
RESULT: 2.1 µM

QUERY: What does the data say about its TGI? Entry: "CN(C)c1ccc2nc3ccc(N)cc3[n+](-c3ccccc3)c2c1"
RESULT: 15.9 µM

QUERY: Quick check: TGI of "C[C@@H](O)[C@H]1C(=O)N2C(C(=O)O)=C(SCCN=CN)C[C@H]12" ?
RESULT: 6.15 µM

QUERY: Could you share which TGI value was measured for N#Cc1c(-c2ccccc2)c(C#N)c(=S)n(C2OC(CO)C(O)C(O)C2O)c1N (centres undefined) ?
RESULT: > 100 µM

QUERY: I have this molecule here, "Cn1ccnc1Sc1ccc(/C=N/NC(=O)c2ccccc2[N+](=O)[O-])cc1[N+](=O)[O-]" , and I need its recorded TGI.
RESULT: > 100 µM

QUERY: For "Cc1cc(O)c2c3c1C(=O)Oc1c(CO)c(O)c(C(=O)O)c(c1O3)C=NN=Cc1c3c(c(CO)c(O)c1C(=O)O)OC(=O)c1c(C)cc(O)c(c1O3)C=NN=C2" , what is its reported TGI?
RESULT: > 1 µM

QUERY: Please give the measured TGI for this molecule: "Cn1c(=O)c2c(nc3sc4nc5ccccc5nc4n32)n(C)c1=O"
RESULT: > 100 µM

QUERY: Fill blank: measured TGI of the molecule Nc1cc2c(nc3c4ccccc4c(N)cc3[n+]2-c2cccc3ccccc23)c2ccccc12 (tested in a mixture with another compound) is ____.
RESULT: 4.53 µM

QUERY: # input molecule: O=C(OCCN1CCCCCC1)C(c1ccsc1)C1CCCCC1 (centres undefined) ; wanted: its TGI
RESULT: 70.6 µM

---

- Test system: NCI-H522 lung
- Procedure text: NCI tumour cell line growth inhibition, 48 h
The following compounds are shown together with reported log10(TGI) values.
Hello, just confirming the data are log10 of TGI with units of µM.

Please review the following examples before continuing.
[[record]]
compound = "COc1ccc2c(c1)c(=O)c1c(NCCN(C)C)ccc3c(=O)n(CCN(C)C)c(=O)n2c31"
result_type = "log10(TGI)"
value_observed = -0.51

[[record]]
compound = "O=C1c2ccc(O)cc2OC(c2cc(O)c(O)c(O)c2)C1O (stereo not given)"
result_type = "log10(TGI)"
value_observed = 1.77

[[record]]
compound = "Cc1cc(C)c2c(=O)n(CN3CCC(C#N)(c4ccccc4)CC3)sc2n1"
result_type = "log10(TGI)"
value_observed = 1.50


QUERY: State the recorded log10(TGI) for this entry: Nc1ccn(C2OC(CO)C3[O][Sn]([c]4ccccc4)([c]4ccccc4)[O]C32)c(=O)n1 (stereo not given)
RESULT: 1.46

QUERY: State the recorded log10(TGI) for this entry: "O=C(Nc1cccc(-c2cccc(F)c2)c1)C1CCN(Cc2cccc3cccnc23)CC1"
RESULT: 0.71

QUERY: Which value of log10(TGI) has been reported for "O=C(CON1C(=O)c2ccccc2C1=O)c1ccccc1" in the records?
RESULT: 1.56

---

- Tested on: HCT-116 colon
- Procedure text: NCI tumour cell line growth inhibition, 48 h
Result type: log10(TGI) (log10 of the value in µM)
Scale: decimal log of TGI, TGI in µM.

Worked examples, 4 molecules total:
[[record]]
molecule = "Cc1c2cnccc2c(C)c2c1c1cc(CO)ccc1n2C"
value_observed = -0.19

[[record]]
molecule = "CN(C)c1ccc(/C=C/c2ccc3ccccc3[n+]2C)cc1"
value_observed = 1.04

[[record]]
molecule = "CN1CCN(c2ccc3nc(-c4c5cccccc-5[nH]c4=O)[nH]c3c2)CC1"
value_observed = 1.41

[[record]]
molecule = "c1ccc([P+](CCN2Cc3ccccc3C2)(c2ccccc2)c2ccccc2)cc1"
value_observed = 1.32


Next molecule, please.
QUERY: Please look up its log10(TGI): CC(C)NCC(O)c1cc(OCc2ccccc2)c(OCc2ccccc2)cc1NC(=O)CCC(=O)O (configuration not stated)
RESULT: 1.25
